Entry source: the supplement of paper PMC9170038

Consider the following sequences; for each one, report its apparent KD of MS2 coat protein.
System: MS2 coat protein
Experiment: apparent KD of MS2 coat protein; higher = weaker reporter binding
Conditions: Eterna round: R107; input ligand: tryptophan 2.4 mM
Answers are plain numbers, in nM.

Solved entries (count: 3):
GGACUAACCAGAAGGAGCGACACGCAGAAACUGCAAUUUCCUCCACACGAGGAUCACCCGUGUCAGGUAGGUCGCUGGUUAGUCG : 26.7
GUUAAUAGAAAACUAUUAACAGUGGGUGAACGAGGACCGGUACGGCCGCCACUCGGACAUGAGGAUCACCCAUGUCCAUGUGAAA [AstrosExyTryA#5] : 35.4
GGACUAACCAGAAGGAGCGACACGCAGAAACUGCAAUUUCCUCUACACGAGGAUCACCCGUGUCAGGUAGGUCGCUGGUUAGUCG : 54

// moving on: another record for apparent KD of MS2 coat protein
Input line: # lookup: apparent KD of MS2 coat protein of UUAAAUGUGACGGAUACCAGCGUGUUGUAGAACAUGAGGAUCACCCAUGUAGUGAUCAAGCGCCCUUGGCAGCUGGUAUGUUUGA [7.Z]
Output line: 124

----------
Test system: K4 kissing-loop RNA reporter
Test: apparent KD of K4 kissing-loop reporter; higher = weaker reporter binding
Details: Eterna round: R107; input ligand: theophylline 20 uM
quantityMeasured: apparent KD of K4 kissing-loop reporter (nM)
One number for each entry, in nM.

UCGCCAAAGUCGGCCGCCACUCCGGGCCCUAUAAAUGGGCGCAGUGAUGUUGCGGCUAGGCCUCUGAGGACCGGGACUUUGUAAA [Tiesgeza] : 32.5
GGAUGGUAGGCGGCCGCCACUAAAACUGAACACAUACAAGCCAGUGAUGUUGGUAUGAUGGAGUAUAGGACCGGGCCUAGAUAGA [Exclusion - Tryptophan B (Freestyle 4)] : 420
AGGAUGUAGUGAUGUUAUAUAAGAAGUAAACGAGGACCGGUACGGCCGCCACUCGAAACGGCUACUAGCGCGUUGCGAGGUGUGC [ExTryptoA.Cf] : 510

Give apparent KD of K4 kissing-loop reporter for each listed item.
1. AGAGAUAUAUGAGGAUAUGAGAUAGUUAAUGAGUGAGUUAUAGUGUAGUUUGGUUAGUGAUGUUAUUUAGAAGGCGUGAGUGAUG [reefmullin]
2. GCAUCCAUGUGAGGAUAUCGAGACGAGUGAUGUUCGGGCACCAGACAGGGAGACCUGUCAAUGGCUUGAGAAGGCACAUGGAUGC
3. UGUCAUUGGUCGGCCGCCACUGAAAUAAAAGAGUGAUGUUCUUAAAAGACGGACAAAGUCUGUCAUAGGACCGGGACCGAUGACU [TrypBS 24 #SwitchBubble #StaticStem]
4. AGUGCUAUGACGGCCGCCACUGAUUACCAGUGAUGUUGGUAGUCCAUUUACGACUUCCUGAUAACCAGGACCGGGUCAUAGGUCG [Tryp B Ex t2]

Output line:
[107, 199, 369, 450]

Give apparent KD of K4 kissing-loop reporter for each listed item.
1. AAUCACCGAGCGGCCGCCACUGCACAAAGCGAGUUUAUAGACACGGUACUGGAGUGAUGUUCGAGCAGGACCGGGCUAACUAAGC [theeternabot_sameState_KL_Trp_B_12]
2. CGCUGGGCGAGUGAUGUUCGCUCACGUGAUACCAGUGCAAUCCAACACCCUUGGCAGCACGCGGGCAGUGAUGUUGUCCUUAGUG [Exclusion Theophylline A GF12]

Output line:
1: 758; 2: 143

----------
Consider the following sequences; for each one, report its apparent KD of MS2 coat protein.
Tested on: MS2 coat protein
Assay: apparent KD of MS2 coat protein; designed switch direction (-1 OFF switch, 1 ON switch): -1; higher = weaker reporter binding
Conditions: Eterna round: R95; input ligand: none
Numbers only, in nM.

Solved entries (count: 3):
CGGUGCUGAGGAUAUACAUGAGGAUCACCCAUGUGUUCCAGCUAGCGUACUGGCGGAUGUAGAAGGCGGUACUG [JL-ex3-3.40 Brourd mod] (puzzle: Exclusion 3) : 17.7
CGCGACUCAGGAUAUACAUGAGGAUCACCCAUGUGGAACUACUGGGUCGAUAAAAGGUGUAGAAGGGAGGAAAU [Veveesla] (puzzle: Exclusion 3) : 13.5
AUAGAGUCAGGAUAUUGCGCAGUGGACAUGAGGAUCACCCAUGUGAACUUCGUACCGGGCCAAGAAGGGACGGAAA [Onedra] (puzzle: Exclusion 5) : 31.1

Give apparent KD of MS2 coat protein for each listed item.
1. UUUAAUUUUUUUUUUUUACAAGCUUUUUGCUCGUCUUAUACAUGAGGAUCACCCAUGUAAAUGGGAGAUAAAUUAUC [JMF 17] (puzzle: Sensor v3, turn-off variant 2)
2. UUUAAUUUUUUUUUUUUACAAGCUUUUUGCUCGUCUUAUACAUGAGGAUCACCCAUGUGAAUGGGAAAUGAAUUAUC [JMF 96] (puzzle: Sensor v3, turn-off variant 2)
3. UUUAAUUUUUUUUUUUUACAAGCUUUUUGCUCGUCUUAUACAUGAGGAUCACCCAUGUAGGUGAGAAAUGAAUUAUC [JMF 94] (puzzle: Sensor v3, turn-off variant 2)
4. GAUUAUGCAAGCUUUAGGGACAUGAGGAUCACCCAUGUUCGUCUUAUUGAUCUAGGUACGCUGACGUACCUAGAUCU [JL-sv1-2.32 Brourd mod] (puzzle: Sensor v3, turn-off variant 1)
5. GGAUGUUAGGAGGAUAUCUGACGUCGAAAAGAAGGAGAAGGCCUGACAUGAGGAUCACCCAUGUGGUCAAAAGA [Eresinbi] (puzzle: Exclusion 6)
6. GAAAAGGUAGGAUAUACGAAAAAAGAGGGUAGAAAAAAAACACAUGAGGAUCACCCAUGUAGAAGGACCAAAAG [salish99_ex2_r3_025] (puzzle: Exclusion 2)

Output line:
1. 92.3
2. 132
3. 29.5
4. 14.8
5. 97.8
6. 24.9

Give apparent KD of MS2 coat protein for each listed item.
1. AAAAAGUGAGGAUAUACAUAAGGACCCGGGAGGGAAAUAAAACAUGAGGAUCACCCAUGUAGAAGGCACAAAAA [Exclss2-I] (puzzle: Exclusion 2)
2. UUUAAUUUUUUUUUUUUACAAGCUUUUUGCUCGUCUUAUACAUGAGGAUCACCCAUGUAGAUGGGAGAUAAAUUAUC [JMF 20] (puzzle: Sensor v3, turn-off variant 2)

Output line:
1. 13.5
2. 40.5

----------
Tested on: MS2 coat protein
Assay: apparent KD of MS2 coat protein; designed switch direction (-1 OFF switch, 1 ON switch): 1; higher = weaker reporter binding
Details: input ligand: microRNA oligo, concentration not stated
Consider the following sequences; for each one, report its apparent KD of MS2 coat protein.
Answers are plain numbers, in µM.

UGUUGUUAACUAGGAUAUGGUCACAUGAGGAUCACCCAUGUAAUGUCGAUGCUAUGUGGAUUUGAUCAGAAGGAGUGGUUAACA [SameState NG2 #99] (Eterna round: R96, puzzle: Same State NG 2) : 0.0588
ACCGAGAGGCUAGGAUAUUAGGGCAUUUGCAUAUGAGAAGGAGCCAGAUGGCCACAUGAGGAUCACCCAUGUCAACCCUGGACA [Eternabot solution 4] (Eterna round: R96, puzzle: Same State NG 1) : 0.0129
GGUGGGUUACUACCAACACAUGAGGAUCACCCAUGUUUUGGGAAGGAUAUGGUACCUAUUUGGUACCAGAAGGUCCCGUUGGUG [salish99_SSNG3_r04_705] (Eterna round: R96, puzzle: Same State NG 3) : 0.0258
UGGCUCAGACGAGGAUAUAUGUAAUAACAUGAGGAUCACCCAUGUGUCGAGCUUCGGCUCGACACAUAGAAGGCGUCUGAGCCA [SSNG2/2-A2] (Eterna round: R96, puzzle: Same State NG 2) : 0.0179
GGAAUAUGAUGUUACAUGAGGAUCACCCAUGUAGUAAUAACUAAGGAUAUCUGAAAGGGAGGAGAAGAGAAGGUAGGAUCAUAA [AK SSNG3-V2-10.2] (Eterna round: R96, puzzle: Same State NG 3) : 0.0354
UUUAGCGUUACAGGAUAUGGUGAGGAUUACCCACUAGAAGGGUAAACAUGUGCGUCGGACAUGAGGAUCACCCAUGUAGGGCGU (Eterna round: R96, puzzle: Same State NG 1) : 0.0216

Input line: # lookup: apparent KD of MS2 coat protein of UGGCUCAGACGAGGAUAUGAUCAUGGCGCUUCGGCGCAUACAUGAGGAUCACCCAUGUAAAGUGAUCAGAAGGUGUCUGAGCCA [SSNG2/7-B2] (Eterna round: R96, puzzle: Same State NG 2)
Output line: 0.0116

----------
Consider the following sequences; for each one, report its apparent KD of K4 kissing-loop reporter.
System: K4 kissing-loop RNA reporter;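 further: bound reporter read as fluorescence of individual clusters on recovered sequencing chips by microscopy, with normalized cluster intensities fitted with a binding model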
Assay: apparent KD of K4 kissing-loop reporter; higher = weaker reporter binding
Conditions: Eterna round: R107; input ligand: FMN 200 uM
Numbers only, in nM.

Give apparent KD of K4 kissing-loop reporter for each listed item.
1. ACGCAUGGGCAAGGAUAUGGUAGUGAUGUUACCUUUGCGGUGCCGGGAACGAAUGACGGUCAUGCGCCAGAAGGUGCUCAGACAA [theeternabot_exclusion_KL_FMN_B_23]
2. UGUCAUGGAAACAUGAACGUUAAAAUAAAUCGAGGACCGGUACGGCCGCCACUCGUAUAGCGGUCAGUGAUGUUGACUGUAGUAA [KL-SSTryp-A form2 sub8]
3. UCGCAAAAGUCGGCCGCCACUCCGGGCCCUAUAAAUGGGCGCAGUGAUGUUGCGGCUAGGCCUCUGAGGACCGGGACUUUGAAGA [Esesbior]
4. GGCUUGCUAGUGAUGUUAGCAUUUUCUGAAGGAGCGCGUGAAAACGCAGGUAGGUCGCAGAACCUUGCCAACUAUUUUAGUUGCC [Ex Arginine A K4 27]

Output line:
1: 203; 2: 99.2; 3: 101; 4: 101
